system: Human immunodeficiency virus 1; assay: In vitro inhibition of HIV-1 (RF strain) using cell-free inactivation assay at concentration of 10 mg/mL; format: functional, organism-based
experimentalReadout: Activity

• CCCCCCCCCCCC[C@@]1(O)C[N+](C)(C)C[C@@H](CC(=O)[O-])O1 = > 4
• CCCCCCCCCCCCCC[C@@]1(O)C[N+](C)(C)C[C@@H](CC(=O)[O-])O1 = > 4
• CCCCCCCCCCCCC[C@@]1(O)C[N+](C)(C)C[C@@H](CC(=O)[O-])O1 = 3.5
• CCCCCCCCCCCCCCC[C@@]1(O)C[N+](C)(C)C[C@@H](CC(=O)[O-])O1 = > 4
• CCCCCCCCCC[C@@]1(O)C[N+](C)(C)C[C@@H](CC(=O)[O-])O1 = > 4
• CCCCCCCCCCC[C@@]1(O)C[N+](C)(C)C[C@@H](CC(=O)[O-])O1 = 4.7

* * *

Here the recorded Activity is given for each entry.
tested on: Human immunodeficiency virus 1; assay: In vitro inhibition of HIV-1 (RF strain) using cell-free inactivation assay at concentration of 0.1 mg/mL; format: functional, organism-based
experimentalReadout: Activity

• CCCCCCCCCCCC[C@@]1(O)C[N+](C)(C)C[C@@H](CC(=O)[O-])O1 = 0.3
• CCCCCCCCCCCCCC[C@@]1(O)C[N+](C)(C)C[C@@H](CC(=O)[O-])O1 = 1.5
• CCCCCCCCCCCCCCC[C@@]1(O)C[N+](C)(C)C[C@@H](CC(=O)[O-])O1 = 1.5
• CCCCCCCCCCCCC[C@@]1(O)C[N+](C)(C)C[C@@H](CC(=O)[O-])O1 = 1.5

* * *

test system: Candida albicans; assay: Minimum inhibitory concentration required for growth inhibition of Candida albicans; type: functional
Here the recorded MIC is given for each entry.
experimentalReadout: MIC (µg/mL)

* CCCCCCCCCCCCC[C@@]1(O)C[N+](C)(C)C[C@@H](CC(=O)[O-])O1 | 40
* CCCCCCCCCCCCCC[C@@]1(O)C[N+](C)(C)C[C@@H](CC(=O)[O-])O1 | 10
* CCCCCCCCCCCC[C@@]1(O)C[N+](C)(C)C[C@@H](CC(=O)[O-])O1 | 80
* CCCCCCCCCCCCCCC[C@@]1(O)C[N+](C)(C)C[C@@H](CC(=O)[O-])O1 | 2

* * *

test system: Human immunodeficiency virus 1; assay: In vitro inhibition of HIV-1 (RF strain) using cell-free inactivation assay at concentration of 1.0 mg/mL; type: functional, organism-based
Label condition not met if Activity falls below 3; label condition met in every other case.

* CCCCCCCCCC[C@@]1(O)C[N+](C)(C)C[C@@H](CC(=O)[O-])O1 | condition not met
* CCCCCCCCCCC[C@@]1(O)C[N+](C)(C)C[C@@H](CC(=O)[O-])O1 | condition not met
* CCCCCCCCCCCCCC[C@@]1(O)C[N+](C)(C)C[C@@H](CC(=O)[O-])O1 | condition met
* CCCCCCCCCCCCC[C@@]1(O)C[N+](C)(C)C[C@@H](CC(=O)[O-])O1 | condition met
* CCCCCCCCCCCCCCC[C@@]1(O)C[N+](C)(C)C[C@@H](CC(=O)[O-])O1 [HEMIACYLCARNITINIUM] | condition met
* CCCCCCCCCCCC[C@@]1(O)C[N+](C)(C)C[C@@H](CC(=O)[O-])O1 | condition not met
